system: UACC-257; assay: NCI tumour cell line growth inhibition, 48 h
Active and inactive are the calls of the source. Rule as the data show it: active = GI50 up to about 1.1 µM and inactive = higher.
reported endpoint: GI50

compound=O=C(O)c1ccc(Nc2nc3ccc(C(F)(F)F)cc3nc2C(=O)O)cc1 result="> 100 µM (inactive)"
compound=Cc1cc(N(CCC#N)CCC#N)ccc1/C=C(\N=[N+]=[N-])C(=O)NC(=O)COc1ccccc1 result="> 100 µM (inactive)"
compound=COc1cc2nc(-c3ccccc3)cc(O)c2cc1OC result="63.7 µM (inactive)"
compound=CC#COS(=O)(=O)c1ccc(C)cc1 result="47.5 µM (inactive)"
compound=O=C(O)c1nc2ccccc2nc1Nc1ccc(F)cc1 result="29.6 µM (inactive)"
compound=COc1ccc(N2C(=O)c3cccnc3S2(=O)=O)cc1 result="> 100 µM (inactive)"
compound=O=S1(=O)c2ccccc2-c2nccc3ccnc1c23 result="28.5 µM (inactive)"
compound="CC(C)(C)c1cc(C#N)c2c(c1)C(=O)OC2(c1ccccc1)c1ccccc1C#N (stereo unspecified)" result="87.7 µM (inactive)"
compound="COc1ccc(OC)c(N(CN2C(=O)CCC2C(=O)O)C(C)=O)c1 (stereo unspecified)" result="> 100 µM (inactive)"
compound="CC(C)(C)OC(=O)NC(Cc1c[nH]cn1)C(=O)N1CCCC1C(N)=O (stereo unspecified)" result="> 100 µM (inactive)"
compound="C/C(=C\\CBr)CCC(Br)C(C)(C)Cl (stereo unspecified)" result="> 100 µM (inactive)"
compound=C[N+](C)=c1nc(N2CCOCC2)ss1 result="> 100 µM (inactive)"
compound=O=C1CCCC2=C1CC1=C(CCCC1=O)N2c1ccc(Cl)cc1 result="> 100 µM (inactive)"
compound="COc1cc(C2SCC(=O)N2c2ccccc2Cl)cc(OC)c1OC (stereo unspecified)" result="> 100 µM (inactive)"
compound="COC(=O)CC1CCN(C#N)CC1CC[N+](=O)[O-] (stereo unspecified)" result="> 100 µM (inactive)"
compound="CC(C)=CC(O)C/C(C)=C/CC/C(C)=C/CCC1(C)C(CCCO)/C(=C(/C)C=O)CCC1(C)O (stereo unspecified)" result="31.5 µM (inactive)"
compound=Cn1c(=O)c2nc(N3CCCCC3)cnc2n(C)c1=O result="> 100 µM (inactive)"
compound="O=C1OC(c2ccccc2)(c2ccccc2)CC1CN1CCOCC1 (stereo unspecified)" result="5.98 µM (inactive)"
compound=O=C(/C=C/c1c(O)ccc2ccccc12)c1ccc([N+](=O)[O-])cc1 result="25.2 µM (inactive)"
compound="CC1=NN(c2cccc(Cl)c2)C2(C1=Cc1cccs1)C(Cl)C(=O)N2c1nc2ccccc2s1 (stereo unspecified)" result="23.2 µM (inactive)"
compound=C#CC[N+](CCO)(CCO)CCCCCCCCCCCCCCCCCC result="15.8 µM (inactive)"
compound="C=CCC1(CN(C)C)CC/C(=C\\c2ccc(OC)cc2)C1=O (stereo unspecified)" result="38 µM (inactive)"
compound=Cn1c2ccccc2n2c3nc4ccccc4nc3c(C#N)c12 result="> 82.6 µM (inactive)"
compound="CC1(C(=O)O)C[C@](C)(C(=O)OCc2ccccc2)C[C@](C)(C(=O)OCc2ccccc2)C1 (stereo partly specified)" result="38.9 µM (inactive)"
compound=O=C(CSC(=S)N1CCCCC1)Nc1nc2c(s1)CCCC2 result="23.3 µM (inactive)"
compound="C[C@@]1(O)C2CC3CC1(c1ccccc1)CC(/C3=N/O)/C2=N\\O (stereo partly specified)" result="> 100 µM (inactive)"
compound=CCCCc1c2c(nc3c1CC/C(=C\c1ccc([N+](=O)[O-])cc1)C3=O)CCCC2 result="2.3 µM (inactive)"
compound=CC1(C)CC(=O)C2=C(C1)NC1=C(C2)C(=O)CC(C)(C)C1 result="> 100 µM (inactive)"
compound=O=C(NC(O)(C(F)(F)F)C(F)(F)F)c1ccccc1 result="> 100 µM (inactive)"
compound=C(=N\c1ccc(-c2nc3ccccc3s2)cc1)/c1ccc[nH]1 result="17.1 µM (inactive)"
compound=Cc1cc(=O)oc2cc(SC(=O)N(C)C)ccc12 result="> 100 µM (inactive)"
